Assign inhibition to each entry below.
- measurement target: Polyunsaturated fatty acid 5-lipoxygenase (Rattus norvegicus) (UniProt P12527)
- Sequence (P12527 whole entry): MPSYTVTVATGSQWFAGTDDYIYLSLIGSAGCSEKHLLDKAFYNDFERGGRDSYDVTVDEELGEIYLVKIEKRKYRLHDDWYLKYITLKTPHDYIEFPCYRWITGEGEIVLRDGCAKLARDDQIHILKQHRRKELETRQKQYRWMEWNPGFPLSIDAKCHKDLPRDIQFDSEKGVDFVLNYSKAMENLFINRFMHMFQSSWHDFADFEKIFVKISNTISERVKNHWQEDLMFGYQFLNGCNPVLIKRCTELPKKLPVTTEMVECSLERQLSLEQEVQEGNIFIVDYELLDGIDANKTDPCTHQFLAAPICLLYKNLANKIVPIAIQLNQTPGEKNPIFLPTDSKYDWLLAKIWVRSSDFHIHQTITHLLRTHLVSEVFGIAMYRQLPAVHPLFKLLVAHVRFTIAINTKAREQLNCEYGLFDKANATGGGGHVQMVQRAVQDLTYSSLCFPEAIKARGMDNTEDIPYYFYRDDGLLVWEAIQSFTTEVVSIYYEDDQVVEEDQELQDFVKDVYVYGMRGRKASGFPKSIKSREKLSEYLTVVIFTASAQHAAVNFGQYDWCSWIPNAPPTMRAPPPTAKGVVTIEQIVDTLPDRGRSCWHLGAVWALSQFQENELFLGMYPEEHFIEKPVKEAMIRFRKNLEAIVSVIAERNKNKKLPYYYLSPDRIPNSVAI
- test: Inhibition of 5-lipoxygenase in Wistar rat peritoneal leukocytes at 50 ug/mL
- Format: cell-based
Give bare numbers, in %.

Below: 2 molecules and their reported inhibition.
input smiles: COc1ccc(-c2cc(=O)c3c(O)cc(O)cc3o2)cc1
measurement target: Polyunsaturated fatty acid 5-lipoxygenase (Rattus norvegicus) (UniProt P12527)
readout value: 77.6
--
input smiles: C/C1=C\CC(C)(C)/C=C/C(=O)/C(C)=C/CC1
measurement target: Polyunsaturated fatty acid 5-lipoxygenase (Rattus norvegicus) (UniProt P12527)
readout value: 0

Below: the item to evaluate.
The recorded inhibition for C[C@@H]1O[C@@H](O[C@@H]2[C@@H](O)[C@H](OCCc3ccc(O)c(O)c3)O[C@H](CO[C@@H]3OC[C@H](O)[C@H](O)[C@H]3O)[C@H]2OC(=O)/C=C/c2ccc(O)c(O)c2)[C@H](O)[C@H](O)[C@H]1O is 0
